Target: recombinant human MGAT2 (Homo sapiens (Human), UniProt Q3SYC2)
Sequence (Q3SYC2 whole entry): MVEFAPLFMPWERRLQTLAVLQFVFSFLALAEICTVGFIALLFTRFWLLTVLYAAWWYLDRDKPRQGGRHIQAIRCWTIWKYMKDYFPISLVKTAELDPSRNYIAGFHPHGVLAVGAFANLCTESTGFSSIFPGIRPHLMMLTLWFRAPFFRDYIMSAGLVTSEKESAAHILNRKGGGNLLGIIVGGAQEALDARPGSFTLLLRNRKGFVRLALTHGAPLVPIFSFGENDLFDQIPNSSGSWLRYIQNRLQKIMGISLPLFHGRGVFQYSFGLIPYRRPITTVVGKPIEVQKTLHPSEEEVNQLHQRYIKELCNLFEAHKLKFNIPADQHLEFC
Assay: Measurement of human MGAT2 inhibitory activity
Assay type: biochemical
Settings: concentration exhibiting 50% enzyme inhibition; recombinant human MGAT2, 2-Oleoylglycerol/Oleoyl-CoA
Parameter: log10 of IC50. Scope: all listed entries.
Friendly reminder: values = log10 of IC50, unit nM.

Use these answered entries as a reference point.
GIVEN SMILES	OBSERVED PROPERTY	REPORTED RESULT
CS(=O)(=O)CC(=O)Nc1c(-c2ccccn2)nn2c1C(=O)N[C@]1(CCc3cc(OCC(F)(F)F)ccc31)C2	log10 of IC50	0.56
Cc1ccc(-c2nn3c(c2NC(=O)c2ccno2)C(=O)N[C@]2(CCc4cc(OCC(F)(F)F)ccc42)C3)nc1	log10 of IC50	0.73
Cc1ccc(-c2nn3c(c2NC(=O)C2CS(=O)(=O)C2)C(=O)N[C@@]2(CCc4cc(OCC(F)(F)F)ccc42)C3)nc1	log10 of IC50	1.13
N#Cc1ccc(-c2nn3c(c2NC(=O)C2CS(=O)(=O)C2)C(=O)N[C@@]2(CCc4cc(OCC(F)(F)F)ccc42)C3)nc1	log10 of IC50	0.41
CS(=O)(=O)CC(=O)Nc1c(-c2ccc(C#N)cn2)nn2c1C(=O)N[C@@]1(CCc3cc(OCC(F)(F)F)ccc31)C2	log10 of IC50	0.30

Look up and state reported log10 of IC50 for CS(=O)(=O)CC(=O)Nc1c(-c2cc(F)c(F)c(F)c2)nn2c1C(=O)N[C@@]1(CCc3cc(OCC(F)(F)F)ccc31)C2
-0.21

Indicate its recorded log10 of IC50; the compound in question is CCCCCc1nn2c(c1NC(=O)CS(C)(=O)=O)C(=O)N[C@]1(CCc3cc(OCC(F)(F)F)ccc31)C2
0.17

Entry CS(=O)(=O)CC(=O)Nc1c(CCC2CC2)nn2c1C(=O)NC1(CN(c3ccc(C(F)(F)F)cc3)C1)C2 needs its log10 of IC50 filled in; supply it.
0.10
